Origin of the recorded values: PubChem BioAssay

experiment: S. cerevisiae RM11-1a growth modifiers, primary screen, strain RM11-1a, OD600, basal, 24 h (AID 1177); details: OD600, 24 h, higher = more signal, called active from +8 up or from −8 down;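 further: cultures grown under basal conditions with no added stressor; test concentration not given here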
Decide by z-score: equal to or exceeding 0.5 means criterion met, less means criterion not met.

# count of solved cases: 4
molecule | category label
CC(=O)c1ccc(C(O)C2C=CC3C(=O)NC(=O)C3N2Nc2ccc(Cl)cc2Cl)cc1 (stereo unspecified) | criterion met
C=C(COC)C(=O)CC[C@@H](OC(=O)c1cccnc1)c1cccc(OCCO)c1 | criterion met
CCc1cccc(NC(=O)O[C@H]2[C@H](OC(=O)Nc3ccc4c(c3)OCO4)[C@H](OC(=O)Nc3ccc4c(c3)OCO4)[C@@H](OC)O[C@@H]2CO)c1 | criterion met
C[N+](C)(C)CCCCCCNC(=O)[C@H]1C[C@H]2C(=O)NCC(=O)N2[C@H]1c1cccc(OCCO)c1 | criterion not met

Here's the next entry for you.
Please tell me: is the molecule Cc1ccccc1C(O)C1C=CC2C(=O)N(c3ccccc3)C(=O)C2N1Nc1ccccc1F (stereo unspecified) at or over 0.5 in terms of z-score? criterion not met
